- System: MX-1 breast xenograft, intrarenal, nude mice, tumor weight
- MEASUREMENT_DESCRIPTION: NCI In Vivo Anticancer Drug Screen. Data for tumor model Human Mammary Carcinoma MX-1 Xenograft (intrarenal inoculation) in NU/NU BALB/C (nude) mice
- CONDITION: endpoint: mean tumor weight change; dose: 150.0 mg/kg/injection; schedule: Q04DX003 (ip); vehicle: Klucel (hydroxypropylcellulose) (HPC); higher = larger tumour
Records with an inconclusive call do not appear.
Quick reference for T/C among some molecules

Consider the worked cases shown below.
MOLECULE | RESULT
COc1cc2c(c3c1c(=O)c1ccccc1n3C)C=CC(C)(C)O2 | 21 % of control
CC(=O)C(Cl)C(=O)c1c(C)[nH]n(-c2ccccc2)c1=O (stereo not drawn) | 103 % of control
O=C1CNC(=O)N1CN1CCOCC1 | 83 % of control
CCn1c(-c2ccc(OC(C)=O)cc2)c(C)c2cc(OC(C)=O)ccc21 | 68 % of control

[in] Record request: T/C value, item CC1=C(C(N)=O)C(c2ccccc2)NC(=S)N1 (stereo not drawn)
[out] 87 % of control

[in] Entry to check: `CCCC1(c2ccccc2)C(=O)NCNC1=O`
[out] 92 % of control

[in] Entry to check: C=CCOc1cc2c(cc1C(C)c1ccc(OC)cc1)OCO2 (stereo not drawn)
[out] 91 % of control

[in] Entry to check: `COc1cc2c(cc1OC)[C@@H]1C(=O)c3ccc4c(c3O[C@@H]1CO2)C[C@H](C(C)C)O4`
[out] 57 % of control

[in] Entry to check: CCOC1NC(=O)Oc2ccccc21 (stereo not drawn)
[out] 80 % of control
